- system: Vitamin K-dependent protein C (Homo sapiens, UniProt P04070)
- Sequence (P04070 43-197 limits assumed): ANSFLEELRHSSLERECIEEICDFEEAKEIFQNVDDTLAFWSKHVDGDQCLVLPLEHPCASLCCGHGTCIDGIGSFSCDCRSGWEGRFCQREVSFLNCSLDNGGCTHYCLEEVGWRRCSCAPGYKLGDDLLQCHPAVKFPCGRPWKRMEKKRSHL
- Sequence (P04070 212-461 limits assumed): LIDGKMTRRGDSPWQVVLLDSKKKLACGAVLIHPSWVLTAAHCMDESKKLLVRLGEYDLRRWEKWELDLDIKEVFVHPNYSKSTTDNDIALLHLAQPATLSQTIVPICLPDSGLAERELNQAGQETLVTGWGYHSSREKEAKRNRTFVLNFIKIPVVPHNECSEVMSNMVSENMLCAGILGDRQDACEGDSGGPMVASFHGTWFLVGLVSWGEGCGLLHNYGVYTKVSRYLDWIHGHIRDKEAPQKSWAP
- procedure.details: Inhibition of activated protein C by dixon plot method
Answer each item with its documented pKi.
Numbers only, as −log10 of the molar value.

Solved cases (2 shown):
Entry under test: "N=C(N)c1ccc(CNC(=O)[C@@H]2Cc3cn(nn3)Cc3cccc(n3)Cn3cc(nn3)C[C@@H](NS(=O)(=O)Cc3ccccc3)C(=O)N2)cc1" . Its pKi was 5.08

Entry under test: N=C(N)c1ccc(CNC(=O)[C@@H]2Cc3ccc(cc3)OCC=CCOc3ccc(cc3)C[C@@H](NS(=O)(=O)Cc3ccccc3)C(=O)N2)cc1 (mixture of isomers) . Its pKi was 7.05

Quick request: pKi for each listed item, please.
1. N=C(N)c1ccc(CNC(=O)[C@@H]2Cc3cccc(c3)CNC(=O)CN3CCN(CC3)CC(=O)NCc3cccc(c3)C[C@@H](NS(=O)(=O)Cc3ccccc3)C(=O)N2)cc1
2. N=C(N)c1ccc(CNC(=O)[C@@H]2Cc3cn(nn3)Cc3cccc(c3)Cn3cc(nn3)C[C@@H](NS(=O)(=O)Cc3ccccc3)C(=O)N2)cc1
3. N=C(N)c1ccc(CNC(=O)[C@@H]2Cc3cccc(c3)CNC(=O)Cc3cccc(c3)CC(=O)NCc3cccc(c3)C[C@@H](NS(=O)(=O)Cc3ccccc3)C(=O)N2)cc1

[7.32, 5.52, 6.65]

Quick request: pKi for each listed item, please.
1. N=C(N)c1ccc(CNC(=O)[C@@H]2Cc3ccc(cc3)CNC(=O)CN3CCN(CC3)CC(=O)NCc3ccc(cc3)C[C@@H](NS(=O)(=O)Cc3ccccc3)C(=O)N2)cc1
2. N=C(N)c1ccc(CNC(=O)[C@@H]2Cc3cccc(c3)CNC(=O)Cc3ccc(cc3)CC(=O)NCc3cccc(c3)C[C@@H](NS(=O)(=O)Cc3ccccc3)C(=O)N2)cc1
3. N=C(N)c1ccc(CNC(=O)[C@@H]2Cc3ccc(cc3)CNC(=O)Cc3ccc(cc3)CC(=O)NCc3ccc(cc3)C[C@@H](NS(=O)(=O)Cc3ccccc3)C(=O)N2)cc1
4. N=C(N)c1ccc(CNC(=O)[C@@H]2Cc3ccc(cc3)OCCCCOc3ccc(cc3)C[C@@H](NS(=O)(=O)Cc3ccccc3)C(=O)N2)cc1

1: 5.45; 2: 6.25; 3: 4.92; 4: 5.34

Quick request: pKi for each listed item, please.
1. N=C(N)c1ccc(CNC(=O)[C@@H]2CCC(=O)NCc3cccc(c3)CNC(=O)CC[C@@H](NS(=O)(=O)Cc3ccccc3)C(=O)N2)cc1
2. N=C(N)NCc1cccc(C[C@H](NC(=O)[C@@H](CCCc2ccccc2)NS(=O)(=O)Cc2cccc(C(=O)O)c2)C(=O)NCc2ccc(C(=N)N)cc2)c1

8.29
9.21
